Can you tell me inhibition of human sperm motility (normalized iRMI by CASA), concentration-response, EC50 for the items I'm about to list?
Molecular target: human recombinant EPPIN (residues P22-P133) (human, UniProt O95925-1 22-133)
Sequence (O95925 22-133): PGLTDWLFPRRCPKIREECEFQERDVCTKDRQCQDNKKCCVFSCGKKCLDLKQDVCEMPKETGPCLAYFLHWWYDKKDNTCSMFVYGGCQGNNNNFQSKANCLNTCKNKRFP
Test: cell-based or functional assay
Use µM as the unit, but write only the number.

Tell me the measured inhibition of human sperm motility (normalized iRMI by CASA), concentration-response, EC50 of human recombinant SEMG1^214-42 (wild-type, residues G26-R281) (domain or fragment, UniProt P04279-1 26-281, looked up, semenogelin I (SEMG1), human, residues G26-R281, cloned into pET100/D-TOPO; also called his-SEMG1; semenogelin I fragment G26-R281; source: E. coli BL21 Star (DE3), purified under denaturing conditions (Ni-NTA); not shown: His6, N-terminal, kept) GGSKGRLPSEFSQFPHGQKGQHYSGQKGKQQTESKGSFSIQYTYHVDANDHDQSRKSQQYDLNALHKTTKSQRHLGGSQQLLHNKQEGRDHDKSKGHFHRVVIHHKGGKAHRGTQNPSQDQGNSPSGKGISSQYSNTEERLWVHGLSKEQTSVSGAQKGRKQGGSQSSYVLQTEELVANKQQRETKNSHQNKGHYQNVVEVREEHSSKVQTSLCPAHQDKLQHGSKDIFSTQDELLVYNKNQHQTKNLNQDQQHGR , please.
1.69

Please give the measured inhibition of human sperm motility (normalized iRMI by CASA), concentration-response, EC50 for this binder: C239H-SEMG1^214-42 (domain or fragment, human, UniProt P04279-1 26-281, looked up, semenogelin I (SEMG1), human, residues G26-R281 with C239H (His239 is the Gorilla residue); Point mutant of m2; source: E. coli BL21 Star (DE3), purified under denaturing conditions (Ni-NTA); not shown: His6, N-terminal, kept) GGSKGRLPSEFSQFPHGQKGQHYSGQKGKQQTESKGSFSIQYTYHVDANDHDQSRKSQQYDLNALHKTTKSQRHLGGSQQLLHNKQEGRDHDKSKGHFHRVVIHHKGGKAHRGTQNPSQDQGNSPSGKGISSQYSNTEERLWVHGLSKEQTSVSGAQKGRKQGGSQSSYVLQTEELVANKQQRETKNSHQNKGHYQNVVEVREEHSSKVQTSLHPAHQDKLQHGSKDIFSTQDELLVYNKNQHQTKNLNQDQQHGR
1.08

Which inhibition of human sperm motility (normalized iRMI by CASA), concentration-response, EC50 is listed for QRETKNSHQNKGHYQNVVEVREEHSSKVQTSLCPAHQDKLQ (domain or fragment, human, UniProt P04279-1 207-247, looked up) [recombinant SEMG1^32-8 (residues Q207-Q247)] ?
1.75

Please give the measured inhibition of human sperm motility (normalized iRMI by CASA), concentration-response, EC50 for this binder: C239R-SEMG1^214-42 (domain or fragment, human, UniProt P04279-1 26-281, looked up, semenogelin I (SEMG1), human, residues G26-R281 with C239R (Arg239 is the residue of Macaca mulatta and Papio anubis); Point mutant of m2; source: E. coli BL21 Star (DE3), purified under denaturing conditions (Ni-NTA); not shown: His6, N-terminal, kept) GGSKGRLPSEFSQFPHGQKGQHYSGQKGKQQTESKGSFSIQYTYHVDANDHDQSRKSQQYDLNALHKTTKSQRHLGGSQQLLHNKQEGRDHDKSKGHFHRVVIHHKGGKAHRGTQNPSQDQGNSPSGKGISSQYSNTEERLWVHGLSKEQTSVSGAQKGRKQGGSQSSYVLQTEELVANKQQRETKNSHQNKGHYQNVVEVREEHSSKVQTSLRPAHQDKLQHGSKDIFSTQDELLVYNKNQHQTKNLNQDQQHGR
2.21
